Collected IC50 of inhibition of IL-1β-induced NF-κB signaling, HEK-Blue IL-1β cells values appear next to each entry.
# Measured target: T1, human interleukin 1 receptor accessory protein, membrane-bound form on cells (human, UniProt Q9NPH3 21-570)
# T1 sequence: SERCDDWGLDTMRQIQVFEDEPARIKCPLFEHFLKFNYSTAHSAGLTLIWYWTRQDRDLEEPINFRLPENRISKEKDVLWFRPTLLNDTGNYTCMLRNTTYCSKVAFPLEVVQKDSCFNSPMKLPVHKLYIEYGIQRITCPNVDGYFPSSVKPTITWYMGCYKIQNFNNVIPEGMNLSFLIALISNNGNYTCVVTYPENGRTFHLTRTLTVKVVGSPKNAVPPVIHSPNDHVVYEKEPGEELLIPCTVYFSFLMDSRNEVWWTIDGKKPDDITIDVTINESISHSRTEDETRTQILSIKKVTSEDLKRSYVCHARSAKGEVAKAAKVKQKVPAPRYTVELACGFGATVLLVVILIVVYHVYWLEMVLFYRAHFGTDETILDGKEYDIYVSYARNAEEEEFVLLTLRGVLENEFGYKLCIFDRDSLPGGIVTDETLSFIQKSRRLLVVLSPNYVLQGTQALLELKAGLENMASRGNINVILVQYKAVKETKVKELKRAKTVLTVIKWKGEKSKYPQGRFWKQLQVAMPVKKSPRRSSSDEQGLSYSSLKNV
# Protocol text: cell-based or functional assay
Express it in µg/mL; write the number only.

Here is how some binders turned out for IC50 of inhibition of IL-1β-induced NF-κB signaling, HEK-Blue IL-1β cells.
{"columns": ["Binder", "Endpoint value"],
 "data": [
  ["anti-IL1-RAP antibody clone 50.3G7 (antibody, V domains shown, Mouse monoclonal antibody) VH: QIQLVQSGPELKKPGETVKISCKASGYTFTNYGMHWVKQSPGEGLKWMGWINTYTGEPTYADDFKGRFGFSLETSASSAYLQINDLKNEDMATYFCARYYGNFDYWGQGTTLTVSS VL: DIVLTQSPATLSVTPGDSVSLSCRASQSISNNLHWYQQKSHESPRLLIKYASQSISGIPSRFSGSGSGTDFTLSINSVETEDFGVYFCQQSHNWPHTFGGGTKLEIKR", 12.6],
  ["anti-IL1-RAP antibody clone 42.1D3 (antibody, V domains shown, Mouse monoclonal antibody) VH: QIQLVQSGPELKKPGETVNISCKASGYTFTDFSMHWVKQAPGKGLQWMGWINTETGEPTYADDFEARFAFSLATSANTAYLKINNLKNEDTATYFCARFFLHFDYWGQGTTLTVSS VL: DIVLTQSPATLSVTPGDSVSLSCRASQSINNDLHWYQQKSHESPRLLIKYASQSISGIPSRFSGSGSGTDFTLRINSVETEDFRMYFCQQSNNWPLTFGAGTKLEVK", 7.99],
  ["anti-IL1-RAP antibody clone 54.9E9 (antibody, V domains shown, Mouse monoclonal antibody) VH: QIQLVQSGPELKKPGETVKISCKASSYTFTDYSMHWVKQAPGKGLKWMGWINTETGEPRYADDFKGRFAFSLETSASTAYLQINNLKNEDTATYFCARFLLHFDYWGQGTILTVSS VL: QIVLTQSPAIMSASPGEKVTMTCSASSSVSYMHWYQQKTGTSPKRLIYDTSKLASGVPARFSGSGSGTSYSLTISSMEAEDAATYYCHQRSYYPLTFGAGAKLELK", 1.3]
]}

Consider the record given below.
The recorded IC50 of inhibition of IL-1β-induced NF-κB signaling, HEK-Blue IL-1β cells for entry anti-IL1-RAP antibody clone 46.1D2 (antibody, V domains shown, Mouse monoclonal antibody) VH: QVQLQQSGPELVKPGASVKISCKASGYGFSSSWMNWVKQRPGKGLEWIGRIYPGDGNTNYYGEFKGKATLTADKSSSTAYMQLNSLTSEDSAVYFCARNDGYPAWFTYWGQGTLVTVSA VL: DIQMTQTTSSLSASLGDRVTISCSASQGISNYLNWYQQKPDGSVKLLIYYTSTLHSGVPSRFSGSGSGTDYSLTISNLEPEDIATYYCQQYSYLPWTFGGGTKLEIK equals 0.13
